Data origin, for the record: patent US20140287989A1

Recorded ΔH by entry
- measured target: T1, E. coli β clamp (β subunit of DNA polymerase III, dnaN gene product) (E. coli, UniProt P0A988 1-366)
- T1 construct: Expressed in BL21 E. coli from pET15b with an N-terminal tag; also called β ring; β protein; not shown: N-terminal tag from plasmid pET15b ('N-tagged protein', purified on Ni-NTA)
- T1 sequence (P0A988 whole entry): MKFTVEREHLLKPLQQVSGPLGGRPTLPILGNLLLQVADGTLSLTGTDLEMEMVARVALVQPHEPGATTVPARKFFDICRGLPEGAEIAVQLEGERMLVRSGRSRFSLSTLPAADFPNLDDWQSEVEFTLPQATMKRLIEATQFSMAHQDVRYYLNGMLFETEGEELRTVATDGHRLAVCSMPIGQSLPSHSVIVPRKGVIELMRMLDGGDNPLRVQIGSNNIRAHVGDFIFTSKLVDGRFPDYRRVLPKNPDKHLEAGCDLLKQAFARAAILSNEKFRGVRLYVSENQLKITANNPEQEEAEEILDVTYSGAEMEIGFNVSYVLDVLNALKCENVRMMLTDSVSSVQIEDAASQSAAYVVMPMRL
- assay: ITC, peptide 400 µM into β ring 20 µM, 25 °C
Square brackets hold non-standard residues; d marks the D form. Phe(3,4-Cl2) = N[C@@H](Cc1ccc(Cl)c(Cl)c1)C(=O)O; Phe(4-Br) = N[C@@H](Cc1ccc(Br)cc1)C(=O)O; Phe(4-Cl) = N[C@@H](Cc1ccc(Cl)cc1)C(=O)O; Phe(4-Me) = Cc1ccc(C[C@H](N)C(=O)O)cc1; Cha = N[C@@H](CC1CCCCC1)C(=O)O
Write the answer as a number in cal/mol, unit excluded.

# count of solved cases: 3
{"binder": "Ac-Q[Cha]DL[Phe(4-Me)]-OH (SMILES CC(=O)N[C@@H](CCC(N)=O)C(=O)N[C@@H](CC1CCCCC1)C(=O)N[C@@H](CC(=O)O)C(=O)N[C@@H](CC(C)C)C(=O)N[C@@H](Cc1ccc(C)cc1)C(=O)O, also called AcQChaDLpMeF; Ac-Q Cha DL pMeF) [P11 (Ac-Gln-Cha-Asp-Leu-pMePhe-OH)]", "measured": -14800}
{"binder": "Ac-Q[Cha]DL[Phe(4-Cl)]-OH (SMILES CC(=O)N[C@@H](CCC(N)=O)C(=O)N[C@@H](CC1CCCCC1)C(=O)N[C@@H](CC(=O)O)C(=O)N[C@@H](CC(C)C)C(=O)N[C@@H](Cc1ccc(Cl)cc1)C(=O)O, also called AcQChaDLpClF; Ac-Q Cha DL pClF) [P12 (Ac-Gln-Cha-Asp-Leu-pClPhe-OH)]", "measured": -15000}
{"binder": "Ac-Q[Cha]DL[Phe(3,4-Cl2)]-OH (SMILES CC(=O)N[C@@H](CCC(N)=O)C(=O)N[C@@H](CC1CCCCC1)C(=O)N[C@@H](CC(=O)O)C(=O)N[C@@H](CC(C)C)C(=O)N[C@@H](Cc1ccc(Cl)c(Cl)c1)C(=O)O, also called AcQChaDLdiClF; Ac Q Cha D L diClF) [P14 (Ac-Gln-Cha-Asp-Leu-(3,4-di-Cl)Phe-OH)]", "measured": -18900}

Measured ΔH, Ac-Q[Cha]DL[Phe(4-Br)]-OH (SMILES CC(=O)N[C@@H](CCC(N)=O)C(=O)N[C@@H](CC1CCCCC1)C(=O)N[C@@H](CC(=O)O)C(=O)N[C@@H](CC(C)C)C(=O)N[C@@H](Cc1ccc(Br)cc1)C(=O)O, also called AcQChaDLpBrF; Ac-Q Cha DL pBrF) [P13 (Ac-Gln-Cha-Asp-Leu-pBrPhe-OH)] : -18100
